target entity: T1, angiotensin converting enzyme-2 (ACE-2), full-length ACE-2 protein (UniProt Q9BYF1 18-740)
T1 construct: also called ACE-2 enzyme; ACE-2 receptor
T1 sequence (Q9BYF1 18-740 limits assumed): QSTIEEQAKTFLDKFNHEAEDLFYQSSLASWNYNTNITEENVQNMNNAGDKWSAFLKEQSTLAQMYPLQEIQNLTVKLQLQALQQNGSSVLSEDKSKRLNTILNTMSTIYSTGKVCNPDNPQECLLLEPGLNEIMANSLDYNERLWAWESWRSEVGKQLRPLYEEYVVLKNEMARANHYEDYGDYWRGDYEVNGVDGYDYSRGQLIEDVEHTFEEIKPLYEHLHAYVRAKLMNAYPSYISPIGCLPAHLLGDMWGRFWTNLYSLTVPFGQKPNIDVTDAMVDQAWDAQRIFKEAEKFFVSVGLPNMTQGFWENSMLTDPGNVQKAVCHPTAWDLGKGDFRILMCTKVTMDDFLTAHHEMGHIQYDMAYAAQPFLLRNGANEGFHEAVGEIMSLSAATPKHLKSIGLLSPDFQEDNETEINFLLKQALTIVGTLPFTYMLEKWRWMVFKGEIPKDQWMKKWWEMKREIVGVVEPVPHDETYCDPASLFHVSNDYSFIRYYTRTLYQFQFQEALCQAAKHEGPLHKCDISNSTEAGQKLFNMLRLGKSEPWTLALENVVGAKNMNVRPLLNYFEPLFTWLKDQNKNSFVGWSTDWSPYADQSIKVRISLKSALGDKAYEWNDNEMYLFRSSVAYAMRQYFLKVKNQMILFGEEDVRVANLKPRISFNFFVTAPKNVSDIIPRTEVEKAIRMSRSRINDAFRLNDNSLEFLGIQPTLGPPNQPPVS
protocol text: fluorescence polarization; FITC-tagged ACIS peptide titrated with hACE-2
endpoint: pKd
The read-out pKd is expressed as -log10 of concentration in moles per litre.

query: Tell me pKd reported for FQPTNGVGYQPYGK (FITC at the C-terminal end (on the C-terminal lysine tag according to paragraph 109), also called FITC-tagged ACIS peptide; FITC-labeled ACIS) [KEPTIDE2 (FITC tagged KEPTIDE; ACIS peptide tagged with FITC probe at C-terminal end)]
result: 8.20
